Target: T1, soluble human CD73 (Homo sapiens, UniProt P21589)
T1 construct: The ectodomain of CD73 (aa 27-549) was expressed as a recombinant protein with a C-terminal His6× tag; His6 (C); made in house; host or cells: transiently transfected HEK cells
T1 sequence (P21589 27-549): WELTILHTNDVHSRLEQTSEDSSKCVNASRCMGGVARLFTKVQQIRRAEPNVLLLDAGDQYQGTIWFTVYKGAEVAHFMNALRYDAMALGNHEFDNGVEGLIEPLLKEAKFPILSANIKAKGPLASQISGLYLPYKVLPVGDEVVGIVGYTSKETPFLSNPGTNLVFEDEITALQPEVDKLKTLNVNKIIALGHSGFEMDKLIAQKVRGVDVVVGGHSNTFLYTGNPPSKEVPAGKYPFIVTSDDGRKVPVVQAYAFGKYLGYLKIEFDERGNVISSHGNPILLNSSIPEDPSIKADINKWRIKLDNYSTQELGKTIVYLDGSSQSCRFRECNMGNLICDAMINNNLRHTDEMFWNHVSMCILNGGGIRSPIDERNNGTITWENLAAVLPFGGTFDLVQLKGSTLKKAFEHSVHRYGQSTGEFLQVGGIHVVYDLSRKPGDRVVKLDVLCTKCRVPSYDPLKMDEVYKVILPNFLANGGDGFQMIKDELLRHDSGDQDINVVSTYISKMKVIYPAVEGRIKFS
Assay: Off-rates of soluble CD73 from immobilized Nb-rbIgG hcAb on Octet BLI
Format: binding
Conditions: soluble human CD73 ectodomain 200 ng/μl as analyte; Nb-rbIgG hcAb immobilized on protein A biosensor
Record form. Attribute: Kdis. Fill in for each entry.
Numbers only here, please. The scale is s⁻¹.

Task: Requested field: Kdis. Item: SB139: CD73-specific alpaca VHH clone, family 6, SEQ ID NO:83; tested as rabbit or human IgG hcAb (antibody, left off: a dimerising Fc or GST, tested as rabbit or human IgG hcAb) heavy: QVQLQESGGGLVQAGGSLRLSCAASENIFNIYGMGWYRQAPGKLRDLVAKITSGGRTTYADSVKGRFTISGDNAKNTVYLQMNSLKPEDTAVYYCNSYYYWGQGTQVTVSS
Output: 0.046

Task: Query SB142: CD73-specific alpaca VHH clone, family 2 in Tables 1-2, SEQ ID NO:73; tested as rabbit IgG hcAb (antibody, left off: a dimerising Fc or GST, tested as rabbit IgG hcAb) heavy: QVQLVESGGGLVQPGGSLRLSCAASGFTFINYHMSWLRQAPGKGLEWVSEIHSRGDITSYTNSVKGRFTISRDNAKNTLYLQMNSLKFDDTAVYYCARSRDLFGEGEYDYWGRGTQVTVSS next
Output: 0.00036
